Below, each entry is listed with its recorded CAI (%) Inhibition.
Tested on: rabbit brush border membrane vesicles (BBMV)
Test Summary: inhibition of cholesterol uptake in rabbit brush border membrane vesicles (scavenger receptor-mediated uptake of radiolabelled cholesterol ester from donor particles)
Assay type: biochemical
Assay Context: inhibition of uptake of radiolabelled cholesterol ester from loaded donor particles into the BBMV bilayer; test concentration not given

{"columns": ["Chem Smiles", "CAI (%) Inhibition"],
 "data": [
  ["O=C1O[C@H](Cn2nncc2-c2ccccc2)[C@@H](c2ccc(O)cc2)N1c1ccc(F)cc1", "15 ± 1%"],
  ["O=C(NCCN1CCOCC1)c1ccc(N2C(=O)O[C@H](CO)[C@H]2c2ccc(O)cc2)cc1", "21 ± 3%"],
  ["CCCNC(=O)c1ccc(N2C(=O)O[C@H](CO)[C@H]2c2ccc(O)cc2)cc1", "15 ± 4%"]
]}

I would be grateful if you could share the reported CAI (%) Inhibition for O=C(NCCN1CCOCC1)c1ccc(N2C(=O)O[C@H](CO)[C@H]2c2ccc(OCc3ccccc3)cc2)cc1 .
33 ± 2%

###

Below, each entry is listed with its recorded CAI (%) Inhibition.
Test system: rabbit brush border membrane vesicles (BBMV)
Test Summary: inhibition of cholesterol uptake in rabbit brush border membrane vesicles (scavenger receptor-mediated uptake of radiolabelled cholesterol ester from donor particles)
Assay type: biochemical
Assay Context: inhibition of uptake of radiolabelled cholesterol ester from loaded donor particles into the BBMV bilayer; test concentration not given
// units = %; emit number, no label

Here are 2 molecules together with their reported answers.
{"columns": ["Molecule", "CAI (%) Inhibition"],
 "data": [
  ["O=C1O[C@H](Cn2nncc2-c2ccc(F)cc2)[C@@H](c2ccc(O)cc2)N1c1ccc(F)cc1 [Compound 30]", 16],
  ["CN(C)CCNC(=O)c1ccc(N2C(=O)O[C@H](CO)[C@H]2c2ccc(O)cc2)cc1 [Compound 33]", 16]
]}

API: the following record is the query input.
Request - read-out CAI (%) Inhibition | tested on rabbit brush border membrane vesicles (BBMV) | molecule C[N+](C)(C)CCNC(=O)c1ccc(N2C(=O)O[C@H](CO)[C@H]2c2ccc(O)cc2)cc1 [Compound 35]
20

Reference for the values: patent EP1958941A1
